meta.source: PubChem BioAssay AID504338

The reader will find reported GFP response vs DMSO values listed item by item below.
Experiment: yeast TOR reporter LAP4-GFP retest – cell-based, third cherry pick, flow cytometry, confirmation (AID 504338);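 also: ratio to plate DMSO wells so 100% equals DMSO level rather than 0%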
Settings: S. cerevisiae LAP4-GFP strain, 3 h, at 10 µM, active compounds read high
ENDPOINT LABEL: GFP response vs DMSO (%)

1. CN1CCN(c2ncnc3ccc(Br)cc23)CC1 107
2. CCN1CCN(c2ncnc3ccc(Br)cc23)CC1 108
3. Cc1ccc2c(c1N)C(=O)c1ccccc1C2=O 104
4. CN(C)C(=O)Oc1ccnc2cc(Cl)ccc12 107
